Tested on: HCV replicon in Huh-7 luc/neo cells
assay-name: Suppression of HCV replicon replication by conditioned media from compound-treated PBMC
Type: cell-based, HCV type 1 b
applied-conditions: Hepatitis C virus; conditioned media from compound-treated PBMC on Huh-7 luc/neo replicon cells (compounds 74 onward); read-out: PBMC HUH-7 EC50
metric: pEC50
Give bare numbers, as −log10 of the molar value.

Some entries whose results are on file:
CCCCNc1nc(N)ncc1OCCOc1ccccc1C(F)(F)F; 6.09
CCCCNc1nc(N)ncc1OCCCc1ccc2c(c1)OCO2; 6.73

Consider `CCC[C@@H](CO)Nc1nc(N)ncc1OCCCc1ccccc1` . Its measured pEC50 is 6.47

* * *

experimental-target: human TLR8 (wild type sequence) (Homo sapiens, UniProt Q9NR97)
Construct: expressed in transfected cells; host or cells: HEK293
Sequence (Q9NR97 27-1041): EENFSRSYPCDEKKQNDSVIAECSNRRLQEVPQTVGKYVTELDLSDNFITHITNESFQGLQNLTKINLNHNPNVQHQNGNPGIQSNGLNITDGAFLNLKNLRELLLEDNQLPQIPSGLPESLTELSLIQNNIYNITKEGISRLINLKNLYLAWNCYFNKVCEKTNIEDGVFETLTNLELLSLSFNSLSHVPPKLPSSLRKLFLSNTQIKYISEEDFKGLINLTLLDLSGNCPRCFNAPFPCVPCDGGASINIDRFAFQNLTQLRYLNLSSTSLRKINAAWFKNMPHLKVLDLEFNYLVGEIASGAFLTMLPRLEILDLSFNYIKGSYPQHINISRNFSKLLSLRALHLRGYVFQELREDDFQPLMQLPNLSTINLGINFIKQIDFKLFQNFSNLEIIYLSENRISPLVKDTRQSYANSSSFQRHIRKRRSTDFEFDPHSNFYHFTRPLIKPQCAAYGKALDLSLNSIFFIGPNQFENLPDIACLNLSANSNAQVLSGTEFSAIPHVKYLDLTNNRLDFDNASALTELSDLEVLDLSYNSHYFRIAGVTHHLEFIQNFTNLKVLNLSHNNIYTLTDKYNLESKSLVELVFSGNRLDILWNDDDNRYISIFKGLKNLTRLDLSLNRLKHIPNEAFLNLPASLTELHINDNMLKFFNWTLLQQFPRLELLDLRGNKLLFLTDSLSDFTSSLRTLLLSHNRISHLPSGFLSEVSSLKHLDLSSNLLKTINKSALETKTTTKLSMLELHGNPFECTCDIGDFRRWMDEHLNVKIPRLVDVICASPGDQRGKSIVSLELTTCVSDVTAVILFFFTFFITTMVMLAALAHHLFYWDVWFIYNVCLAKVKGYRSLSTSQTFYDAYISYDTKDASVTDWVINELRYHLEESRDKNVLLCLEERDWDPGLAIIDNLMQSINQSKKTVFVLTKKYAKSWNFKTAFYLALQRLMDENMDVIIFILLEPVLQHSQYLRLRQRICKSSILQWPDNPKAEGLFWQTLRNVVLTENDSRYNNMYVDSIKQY
assay-name: TLR8 cellular NFκB-luc reporter assay, wild type TLR8
Format: cell-based
Design: unit not given here
applied-conditions: lowest effective concentration, wild type TLR8 (compounds 74 onward)
Binary call on TLR 8 wt LEC: TRUE from 3 upward, FALSE beneath that.

CCCCNc1nc(N)ncc1OCCC(c1ccccc1)c1ccccc1; TRUE
CCCCNc1nc(N)ncc1OCc1c(C)noc1-c1ccccc1; TRUE
COc1cnc(N)nc1NCCC1CC1; TRUE
CCCCNc1nc(N)ncc1OCCCc1ccc(Cl)cc1; FALSE
CCCCNc1nc(N)ncc1OCc1cc(OC2CCCC2)c(OC)cn1; FALSE

Next up:
API: above_or_equal(metric=TLR 8 wt LEC, cutoff=3) for item `CCCCNc1nc(N)ncc1O[C@H](C)c1ccccc1`
TRUE

* * *

experimental-target: human TLR7 (wild type sequence) (Homo sapiens)
Construct: expressed in transfected cells; host or cells: HEK293
assay-name: TLR7 cellular NFκB-luc reporter assay, wild type TLR7
Assay type: cell-based
Set-up: unit not given here
applied-conditions: lowest effective concentration, wild type TLR7 (compounds 74 onward)
Provide the recorded TLR 7 wt LEC for the entries that follow.
One number for each entry.

Guide cases for TLR 7 wt LEC, answers given:
CCCCNc1nc(N)ncc1OCCCc1ccncc1 [Compound 177]; 0.795
CCCC(CCC)Nc1nc(N)ncc1OCCCc1ccccc1 [Compound 114]; 2.020

Please go through the list and note TLR 7 wt LEC for each compound.
1. CCCCNc1nc(N)ncc1OCc1nc(C)oc1C [Compound 178]
2. CCCCNc1nc(N)ncc1OCCCc1ccc(Cl)cc1 [Compound 109]
3. CCCCNc1nc(N)ncc1OCCOc1ccc(C(=O)OC)c(OC)c1 [Compound 134]

0.810
0.790
2.010

* * *

experimental-target: human TLR7 (wild type sequence) (Homo sapiens)
Construct: expressed in transfected cells; host or cells: HEK293
Sequence (Q9NYK1 27-1049): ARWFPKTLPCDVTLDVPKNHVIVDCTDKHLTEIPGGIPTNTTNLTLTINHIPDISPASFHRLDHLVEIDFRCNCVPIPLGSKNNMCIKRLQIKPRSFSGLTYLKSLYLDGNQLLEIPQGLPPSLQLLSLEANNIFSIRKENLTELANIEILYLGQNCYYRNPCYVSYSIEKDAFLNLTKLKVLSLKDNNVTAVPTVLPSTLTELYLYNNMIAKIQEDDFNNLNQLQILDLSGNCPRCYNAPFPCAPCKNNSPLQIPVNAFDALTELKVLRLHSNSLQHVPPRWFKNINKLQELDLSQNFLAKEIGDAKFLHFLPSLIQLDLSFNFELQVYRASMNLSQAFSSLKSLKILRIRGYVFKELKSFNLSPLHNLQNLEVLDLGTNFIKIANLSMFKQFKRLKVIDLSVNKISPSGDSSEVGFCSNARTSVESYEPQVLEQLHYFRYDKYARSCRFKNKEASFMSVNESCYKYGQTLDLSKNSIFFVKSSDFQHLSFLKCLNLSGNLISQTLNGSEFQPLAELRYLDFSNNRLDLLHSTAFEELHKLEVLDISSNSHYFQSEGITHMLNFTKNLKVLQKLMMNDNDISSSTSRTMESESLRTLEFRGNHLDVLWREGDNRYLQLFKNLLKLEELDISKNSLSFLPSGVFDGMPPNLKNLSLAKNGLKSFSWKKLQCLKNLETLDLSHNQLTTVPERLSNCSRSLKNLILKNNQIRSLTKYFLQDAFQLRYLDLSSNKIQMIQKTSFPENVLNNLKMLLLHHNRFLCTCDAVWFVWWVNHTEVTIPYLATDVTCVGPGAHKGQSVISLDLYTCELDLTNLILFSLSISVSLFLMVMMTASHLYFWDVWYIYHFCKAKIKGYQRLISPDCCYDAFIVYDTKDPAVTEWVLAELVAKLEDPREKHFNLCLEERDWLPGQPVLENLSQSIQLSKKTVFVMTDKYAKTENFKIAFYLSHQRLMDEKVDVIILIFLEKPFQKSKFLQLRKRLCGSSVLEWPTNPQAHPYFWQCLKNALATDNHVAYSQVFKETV
assay-name: TLR7 cellular NFκB-luc reporter assay, wild type TLR7
Type: cell-based
Design: unit not given here
applied-conditions: lowest effective concentration, wild type TLR7
metric: TLR7-wt_LEC
Give bare numbers.

As a guide, the following entries are already answered.
CCC[C@@H](CO)Nc1nc(N)ncc1OCc1cccnn1; 1.180
CCC[C@@H](CO)Nc1nc(N)ncc1OCCOC; 1.900
CCCCNc1nc(N)ncc1OCCN(Cc1ccccc1)C(=O)OCC; 0.593
CCC[C@@H](C)Nc1nc(N)ncc1OCc1nccc2ccccc12; 0.125
CCCC(C)Nc1nc(N)ncc1OCCOC (stereo not shown); 4.880

Dear colleague, could you send me TLR7-wt_LEC for each of the items below? Thanks.
1. CCCCNc1nc(N)ncc1OC(C)C
2. CCC[C@@H](CCO)Nc1nc(N)ncc1OCc1cc2ccccc2cn1
3. CCC[C@@H](CCO)Nc1nc(N)ncc1OCCCc1ccc2c(c1)OCO2
4. CCCCNc1nc(N)ncc1OCCOCC(F)(F)F

10.070
0.039
0.234
3.260

List the reported TLR7-wt_LEC of each compound below.
1. C#CCOc1cnc(N)nc1NCCCC
2. CCC[C@@H](CCO)Nc1nc(N)ncc1OCc1cccnc1
3. CCCC[C@@H](CCO)Nc1nc(N)ncc1OCc1ccccn1
4. CCCC[C@@H](CO)Nc1nc(N)ncc1OCc1cccnc1
5. CCCC[C@@H](CCO)Nc1nc(N)ncc1OCc1nccc(OC)c1OC

1. 2.120
2. 0.261
3. 0.133
4. 1.140
5. 0.040

Per the records, this compound ( `CCC[C@@H](CO)Nc1nc(N)ncc1OCc1nccc(OC)c1OC` ) has TLR7-wt_LEC equal to 0.134
